- Test system: SW-620
- experimental_details: NCI tumour cell line growth inhibition, 48 h
Calls of active or inactive are those of the source. No stated cut-off is given here; in the data, active = GI50 up to about 1.1 µM and inactive = higher.
readout_label: GI50

- compound: "CC[C@@H](O)C[C@H]1CCC[C@@]2(C[C@@H]3OC(=O)/C=C/[C@@](C)(O)[C@@H](O)[C@H](C)[C@@H](O)[C@H](OC4CCC(N(C)C)C(C)O4)[C@@H](O)[C@](C)(O)CCCCC/C=C/[C@@H]4CC(C)(C)O[C@@]4(O)C[C@H](O2)[C@H]3C)O1 (stereo partly drawn)"
  readout_label: "GI50"
  observed_value: "16.6 µM (inactive)"
- compound: "C(=C\\c1cccc(/C=C/c2ccccn2)n1)/c1ccccn1"
  readout_label: "GI50"
  observed_value: "59.4 µM (inactive)"
- compound: "CC1(C)C=Cc2c(cc(O)c3c(=O)c4cc(Cl)ccc4[nH]c23)O1"
  readout_label: "GI50"
  observed_value: "3.55 µM (inactive)"

* * *

- Tested on: M14
- experimental_details: NCI tumour cell line growth inhibition, 48 h
The source made the active and inactive calls. No stated cut-off is given here; in the data, active = GI50 up to about 1.1 µM and inactive = higher.

- compound: "C/C=C\\C(CC(=O)NCCC1CN(C(=O)c2ccccc2)c2ccccc21)CC(=O)OC (stereo not given)"
  GI50: "> 100 µM (inactive)"
- compound: "C[C@@H](CC(=O)OCc1ccccc1)OC1OC(COC(=O)C(C)(C)C)C(OC(=O)C(C)(C)C)C(OC(=O)C(C)(C)C)C1OC(=O)C(C)(C)C (stereo not given in full)"
  GI50: "> 100 µM (inactive)"
- compound: "COc1ccc(/N=N/c2c(-c3c(OC)cc4occc4c3OC)[nH]c(=O)c(C#N)c2C)cc1"
  GI50: "> 100 µM (inactive)"
- compound: "CC(=O)Oc1ccc2c3c1[C@@H]1O[C@@H]1c1cccc(c1-3)[C@@H]1O[C@H]21"
  GI50: "1.72 µM (inactive)"
- compound: "COc1ccc(C2ON(c3ccccc3)CC=C2C)cc1 (stereo not given)"
  GI50: "80.7 µM (inactive)"
- compound: "COc1ccc2c(c1)-c1c(c3ccccc3n1CCN1CCCCC1)CC2"
  GI50: "5.47 µM (inactive)"
- compound: "Oc1cccc2cc(Br)cnc12"
  GI50: "9.14 µM (inactive)"
- compound: "CC1(C)CCCC2OC2CCC(C)(C)C1=O (stereo not given)"
  GI50: "> 100 µM (inactive)"
- compound: "CC(C)[Si](OC1=C(c2ccccc2)C(NC(=O)/C=C/c2ccc([N+](=O)[O-])cc2)CCC1)(C(C)C)C(C)C (stereo not given)"
  GI50: "> 100 µM (inactive)"
- compound: "CC1=C(C(=O)OCCO[N+](=O)[O-])C(c2ccccc2[N+](=O)[O-])C(C(=O)OC(C)C)=C(C)N1 (stereo not given)"
  GI50: "15.8 µM (inactive)"
- compound: "O=C(/N=C1/NCC(CN2CCN(c3ccccc3)CC2)O1)Nc1ccccc1 (stereo not given)"
  GI50: "> 100 µM (inactive)"
- compound: "CCN1CCC(O)(c2ccc(Oc3ccc(F)cc3)cc2)C(C(=O)c2ccc(Oc3ccc(F)cc3)cc2)C1 (stereo not given)"
  GI50: "16.9 µM (inactive)"
- compound: "O=C1CNC(=O)/C(=C/c2c[nH]c3ccccc23)N1"
  GI50: "> 100 µM (inactive)"
- compound: "Cc1csc(NNC(N)=O)n1"
  GI50: "> 100 µM (inactive)"
- compound: "Cc1cc(O)c2c(c1)C(O)(c1ccc3c(c1O)C(=O)c1c(O)cc(C)cc1C3(O)C1OC(CO)C(O)C(O)C1O)c1cccc(O)c1C2=O (stereo not given)"
  GI50: "14.4 µM (inactive)"
- compound: "COc1ccc(CCN2CCc3c(C)c(C#N)c4nc5ccccc5n4c32)cc1OC"
  GI50: "> 100 µM (inactive)"
- compound: "c1cc(-c2ccc(-c3ccsc3)s2)cs1"
  GI50: "31 µM (inactive)"
- compound: "COc1ccc2oc(-c3cc4cc(OC)ccc4o3)cc2c1"
  GI50: "> 100 µM (inactive)"
- compound: "CC[N+]1(C)CCC(O)(/C=C/c2ccc(OC)cc2)C(C(=O)/C=C/c2ccc(OC)cc2)C1 (stereo not given)"
  GI50: "10.4 µM (inactive)"
- compound: "O=C1CSC2=NC3=C(CSC/C3=C\\c3ccccc3)C(c3ccccc3)N12 (stereo not given)"
  GI50: "41.5 µM (inactive)"

* * *

- System: SF-539
- experimental_details: NCI tumour cell line growth inhibition, 48 h
The source made the active and inactive calls. Cut-off read from the data, not from the text of the source: active = GI50 up to about 1.1 µM and inactive = higher.

- compound: "Cc1ccc(Cl)c(NC(=O)C(=O)C(C(=O)c2ccncc2)C2OC(=O)c3ccccc32)c1 (configuration not stated)"
  GI50: "> 100 µM (inactive)"
- compound: "OC1CCC(C2C3CCCCC3C3CCCCC3C2C2CCC(O)CC2)CC1 (configuration not stated)"
  GI50: "10.6 µM (inactive)"
- compound: "c1ccc(/N=C(\\N2CCOCC2)N(CCN2CCOCC2)c2ccccc2)cc1"
  GI50: "> 100 µM (inactive)"
- compound: "CC1=CC(=O)/C(=C/NC(=S)Nc2ccc(S(N)(=O)=O)cc2)C(=O)O1"
  GI50: "> 100 µM (inactive)"
- compound: "COC(=O)c1c(C)cccc1/C=C1\\Cc2ccc(C)c(C)c2C1=O"
  GI50: "> 100 µM (inactive)"
- compound: "O=C(CNS(=O)(=O)Cc1ccccc1)NNc1ccccc1"
  GI50: "3.05 µM (inactive)"
- compound: "CC(=O)Nc1ccc(/C=C/C(=O)N2CC(CCl)c3c2cc(N)c2ccccc32)cc1 (configuration not stated)"
  GI50: "< 0.005 µM (active)"
- compound: "Cc1ccc(-c2nc3ccccc3c(=O)n2NCC2(O)OCC(O)C(O)C2O)cc1 (configuration not stated)"
  GI50: "> 100 µM (inactive)"
- compound: "c1ccc2c(c1)c1c3n2-c2cc(on2)C3CCC1 (configuration not stated)"
  GI50: "> 100 µM (inactive)"
- compound: "Oc1ccc(O)c(CNc2ccc(C(O)C(F)(F)F)cc2)c1 (configuration not stated)"
  GI50: "4.85 µM (inactive)"
- compound: "CCCCN1C(=O)C2c3[nH]c4ccccc4c3C3CCCCC3C2C1=O.CCCCN1C(=O)C2c3[nH]c4ccccc4c3[C@@H]3CCCCC3C2C1=O (configuration not stated)"
  GI50: "14.8 µM (inactive)"
- compound: "COC(=O)C1=C(C)NC2(C)OC(C)(O)C(C(C)=O)C12C(C)=O (configuration not stated)"
  GI50: "24.3 µM (inactive)"
- compound: "Oc1cc(Br)cc2cc(Br)cnc12"
  GI50: "3.78 µM (inactive)"
- compound: "C/C(=C\\c1ccc(Cl)cc1)C(C)(C)C(=O)O"
  GI50: "> 100 µM (inactive)"
- compound: "Clc1ccc(/C=C/c2csnn2)cc1"
  GI50: "> 100 µM (inactive)"
- compound: "OCC(O)C(O)C(O)c1nn(-c2ccc(Cl)cc2)c2nc3cc(Cl)c(Cl)cc3nc12 (configuration not stated)"
  GI50: "42.8 µM (inactive)"
- compound: "O=C(c1ccccc1)N1CCC(Nc2nccs2)O1 (configuration not stated)"
  GI50: "> 10 µM (inactive)"
- compound: "OC1CCN(c2c3ccccc3nc3ccccc23)CC1"
  GI50: "33 µM (inactive)"
- compound: "C[C@]12CC[C@H](O)CC1=CC[C@@H]1C2CC[C@]2(C)NC(=O)C(C#N)CC12 (some centres not stated)"
  GI50: "> 100 µM (inactive)"
- compound: "CCN(CC)C1C(=O)NC1C#Cc1ccccc1 (configuration not stated)"
  GI50: "> 100 µM (inactive)"
- compound: "Cn1c2ccccc2c(=O)c2c(O)cc3c(c21)C=CC(C)(C)O3"
  GI50: "> 25 µM (inactive)"
- compound: "O=C1NC(Cc2ccccc2)C(=O)N2CCCC12 (configuration not stated)"
  GI50: "> 100 µM (inactive)"

* * *

- System: PC-3
- experimental_details: NCI tumour cell line growth inhibition, 48 h
Where a name gives a salt, the structure may show the parent alone. Activity calls are given as the source filed them. No stated cut-off is given here; in the data, active = GI50 up to about 1.1 µM and inactive = higher.
Possible outcomes: yes (active), no (inactive)

- compound: "COc1cccc2c(Nc3ccc(S(=O)(=O)N=C(N)N)cc3)c3ccc([N+](=O)[O-])cc3nc12"
  label_class: "no"
- compound: "COc1ccc([I+]c2ccc(OC)cc2)cc1"
  label_class: "no"
- compound: "Cc1cccc2nc3cccc(C(=O)NCCC[N+](C)(CCCNC(=O)c4cccc5nc6cccc(C)c6nc45)Cc4ccc([N+](=O)[O-])n4C)c3nc12"
  label_class: "no"
- compound: "COc1ccc(N2/C(=N/c3ccccc3)SC(=N/S(=O)(=O)c3ccccc3)/C2=N\\S(=O)(=O)c2ccccc2)cc1"
  label_class: "no"
- compound: "CCN(CC)CCCNc1ccc([N+](=O)[O-])c2nc3ccccc3c(N)c12"
  label_class: "yes"
- compound: "N#Cc1cc2c(n(C3OC(CO)C(O)C(O)C3O)c1=S)CCCCCC2 (stereo not given)"
  label_class: "no"
- compound: "Clc1ccc(-c2cc3nc4ccccc4nc3o2)cc1"
  label_class: "no"
- compound: "CC(O)CNC(=O)Nc1c(C(F)(F)F)cc(-c2ccccc2)[nH]c1=O (stereo not given)"
  label_class: "no"
- compound: "C[N+](C)(C)CC(=O)N/N=C(/CC(=O)CC(C1=C(O)c2ccccc2OC1)c1ccccc1)C(=O)Nc1cccc(Cl)c1 (stereo not given)"
  label_class: "no"
- compound: "COc1ccc(C2SC(=N)Nc3c2c(C)nn3C(=O)c2ccncc2)cc1 (stereo not given)"
  label_class: "no"
- compound: "O=c1c2cccnc2n2n1Cc1ccccc1C2"
  label_class: "no"
- compound: "N#CCN1CCCN(CC#N)CCN(CC#N)CCCN(CC#N)CC1"
  label_class: "no"
- compound: "O=c1c2c3c(sc2nc2n1N=CN(c1ccc(Cl)cc1)C2)CCCC3"
  label_class: "no"
- compound: "CCc1ccc2c(c1)N(CC(C)CN(C)C)c1ccccc1S2 (stereo not given) [ETYMEMAZINE HYDROCHLORIDE]"
  label_class: "no"
- compound: "O=C1OC(c2ccco2)=N/C1=C\\c1cccc([N+](=O)[O-])c1"
  label_class: "no"
- compound: "CC(C)(C)OC(=O)NCCCCCCC(=O)Cc1ccccc1"
  label_class: "no"
- compound: "COc1ccc(C2C3=C(COC3=O)Oc3cc4c(cc32)OCO4)cc1OC (stereo not given)"
  label_class: "yes"
- compound: "C[C@H]1S[C@H](c2c(F)cccc2F)n2c1nc1ccccc12"
  label_class: "no"
- compound: "CCCCCCCC/C=C\\CCCCCCCCNc1ccn(C2OC(COP(=O)(O)OC3CC(n4cc(F)c(=O)[nH]c4=O)OC3CO)C(O)C2O)c(=O)n1 (stereo not given)"
  label_class: "no"
- compound: "Cc1ccc(C)c(NC(=O)C(Cc2c[nH]c3ccccc23)NC(=O)OCc2ccccc2)c1 (stereo not given)"
  label_class: "no"
